Taken from the supplement of paper PMC7125110.

Recorded measurements of self-cleavage kobs at 160 uM GlcN6P, one per entry
B1: glmS ribozyme (parent)
chain: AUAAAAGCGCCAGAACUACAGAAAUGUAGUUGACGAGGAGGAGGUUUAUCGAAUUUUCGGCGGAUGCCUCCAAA

Variants of: B1
Test: self-cleavage kobs at 160 uM GlcN6P; higher = faster cleavage; RNA array
Conditions: with glucosamine-6-phosphate
This sample holds only a part of the variants without activity.

• AUAAAAGCGGCAGAACUACAGAAAUGUAGUUGACGAGGAGGAGGUUUAUCGAAUUUUCGGCGCAGGCCUCCAAA [C10G G63C U65G] = < 1e-05 s⁻¹
• AUAAAAGCGCUAGAACUACAGAAAUGUAGUUCACGAGGAGGAGGUUUAUCGAAUUUUCGGCGGAUGCCUCCAAA [C11U G32C] = < 1e-05 s⁻¹
• AUAAAAGCGCCAGAACUACAGAAAUGUAGUUGACGAGGAGGAGGUUUAUCGAAUUAUCGGCGGAUGCUUCCAAA [U56A C68U] = 0.000404 s⁻¹

Below: the item to evaluate.
[ask] Suppose we examine the variant AUAAAAGCGCCAUUACUACAGAAAUGUAGUUGACGAGGAGGAGGUUUAUCGAAUUUUCGGCGGAUGCCUCCAAA [G13U A14U] ; what self-cleavage kobs at 160 uM GlcN6P value has been reported?
[reply] 8.56e-05 s⁻¹
